Source of measurements: patent US20220289765A1

Test: Pharmacokinetic test in mice
Type: in vivo
Settings: mouse, plasma; PO, dosage given as 10 mL/kg, male CD-1 mice; read-out: Peak Concentration Cmax
quantity: Cmax (µM)
Response body: numeric value in µM, unit text excluded.

For O=C1NC2(CC2)COc2ncc(F)cc2[C@H]2CCON2c2ccn3ncc1c3n2 , write its Cmax.
9.14

* * *

Experiment: Cassette pharmacokinetic test in mice (plasma, brain, CSF)
Format: in vivo, male CD-1 mice
Conditions: male, CD-1, mouse, in vivo, iv, 1 mg/kg
quantity: Vd

For CN1CCN(c2ccc(C(=O)Nc3n[nH]c4ccc(Cc5cc(F)cc(F)c5)cc34)c(NC3CCOCC3)c2)CC1 , write its Vd.
1.24 L/kg

* * *

Experiment: Cassette pharmacokinetic test in mice (plasma, brain, CSF)
Type: in vivo, male CD-1 mice
Details: mouse, plasma, 1 mg/kg; IV @ 1 mpk, cassette, male CD-1 mice; read-out: Area under Curve AUC0-inf
Each item that follows carries a reported AUC(0-inf).
Response body: numeric value in µM·h, unit text excluded.

[[record]]
smi = "O=C(Nc1cnn2ccc(N3CCC[C@@H]3c3cc(F)ccc3F)nc12)N1CC[C@H](O)C1"
quantity = "AUC(0-inf)"
assay_value = 1.72

[[record]]
smi = "O=C1NC2(CC2)COc2ncc(F)cc2[C@H]2CCON2c2ccn3ncc1c3n2"
quantity = "AUC(0-inf)"
assay_value = 6.69


Would you kindly look at the next entry?
For C[C@H]1CNC(=O)c2cnn3ccc(nc23)N[C@H](C)c2cc(F)ccc2O1 , write its AUC(0-inf).
2.86

* * *

Target: Ros-G2032R (Homo sapiens, UniProt P08922, G2032R)
Sequence (P08922 28-2347 G2032R): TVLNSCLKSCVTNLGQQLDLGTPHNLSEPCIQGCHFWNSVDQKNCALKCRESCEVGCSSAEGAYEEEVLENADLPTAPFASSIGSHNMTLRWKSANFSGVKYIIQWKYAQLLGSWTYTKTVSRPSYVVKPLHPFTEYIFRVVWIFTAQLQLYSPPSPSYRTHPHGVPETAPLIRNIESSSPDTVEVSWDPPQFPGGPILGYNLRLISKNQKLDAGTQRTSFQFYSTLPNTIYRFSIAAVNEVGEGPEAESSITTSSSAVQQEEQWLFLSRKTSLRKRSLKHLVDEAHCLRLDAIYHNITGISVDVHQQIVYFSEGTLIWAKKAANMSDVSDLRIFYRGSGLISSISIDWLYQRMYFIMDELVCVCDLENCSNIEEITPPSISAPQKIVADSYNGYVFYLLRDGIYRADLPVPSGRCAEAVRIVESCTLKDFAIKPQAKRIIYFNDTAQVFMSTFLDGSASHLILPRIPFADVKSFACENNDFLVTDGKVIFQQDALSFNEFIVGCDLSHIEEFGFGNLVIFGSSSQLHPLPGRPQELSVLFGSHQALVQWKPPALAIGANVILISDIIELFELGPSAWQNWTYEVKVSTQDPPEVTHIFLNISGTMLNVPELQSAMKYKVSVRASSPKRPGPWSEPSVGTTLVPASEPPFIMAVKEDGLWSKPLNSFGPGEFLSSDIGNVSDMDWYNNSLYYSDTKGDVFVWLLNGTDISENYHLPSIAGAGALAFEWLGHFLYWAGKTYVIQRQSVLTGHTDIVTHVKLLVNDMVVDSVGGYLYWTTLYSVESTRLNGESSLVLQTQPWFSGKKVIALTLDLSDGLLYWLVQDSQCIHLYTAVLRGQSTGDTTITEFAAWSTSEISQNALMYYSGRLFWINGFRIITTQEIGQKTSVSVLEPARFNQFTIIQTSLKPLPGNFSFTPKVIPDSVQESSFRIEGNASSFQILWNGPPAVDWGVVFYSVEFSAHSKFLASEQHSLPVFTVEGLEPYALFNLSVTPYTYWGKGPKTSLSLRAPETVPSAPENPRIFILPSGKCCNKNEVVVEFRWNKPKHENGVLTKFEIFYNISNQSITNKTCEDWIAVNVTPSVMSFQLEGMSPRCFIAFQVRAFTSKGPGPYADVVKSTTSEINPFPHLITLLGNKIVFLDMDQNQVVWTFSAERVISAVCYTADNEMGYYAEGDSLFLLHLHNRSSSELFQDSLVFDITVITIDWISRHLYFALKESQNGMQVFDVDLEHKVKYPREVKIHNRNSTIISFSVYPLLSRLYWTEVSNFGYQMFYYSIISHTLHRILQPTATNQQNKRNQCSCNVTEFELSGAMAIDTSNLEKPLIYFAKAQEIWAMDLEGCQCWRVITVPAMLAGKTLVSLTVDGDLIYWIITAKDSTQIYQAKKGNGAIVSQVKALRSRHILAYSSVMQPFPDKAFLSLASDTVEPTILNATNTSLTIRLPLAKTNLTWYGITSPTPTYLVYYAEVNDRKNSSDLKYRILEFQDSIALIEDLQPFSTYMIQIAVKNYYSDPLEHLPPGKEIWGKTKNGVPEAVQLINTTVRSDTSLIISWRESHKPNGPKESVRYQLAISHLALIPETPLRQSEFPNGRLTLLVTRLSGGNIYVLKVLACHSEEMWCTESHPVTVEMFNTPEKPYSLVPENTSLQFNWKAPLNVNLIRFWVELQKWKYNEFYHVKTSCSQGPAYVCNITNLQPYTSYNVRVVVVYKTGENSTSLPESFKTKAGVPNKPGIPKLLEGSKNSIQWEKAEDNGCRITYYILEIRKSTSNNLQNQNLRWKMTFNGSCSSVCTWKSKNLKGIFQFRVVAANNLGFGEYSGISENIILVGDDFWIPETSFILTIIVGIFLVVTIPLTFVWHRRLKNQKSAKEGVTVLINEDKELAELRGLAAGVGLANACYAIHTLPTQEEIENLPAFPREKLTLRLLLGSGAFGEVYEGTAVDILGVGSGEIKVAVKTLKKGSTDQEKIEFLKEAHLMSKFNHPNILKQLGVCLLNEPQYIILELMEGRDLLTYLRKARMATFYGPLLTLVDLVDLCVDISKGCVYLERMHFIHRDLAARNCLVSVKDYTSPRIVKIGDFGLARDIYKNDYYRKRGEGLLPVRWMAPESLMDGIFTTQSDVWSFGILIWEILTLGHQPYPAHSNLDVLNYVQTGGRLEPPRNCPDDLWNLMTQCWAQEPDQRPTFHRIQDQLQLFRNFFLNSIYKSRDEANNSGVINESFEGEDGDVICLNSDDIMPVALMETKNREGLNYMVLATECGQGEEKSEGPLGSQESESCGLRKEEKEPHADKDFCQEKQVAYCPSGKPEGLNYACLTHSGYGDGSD
Assay: Kinase inhibitory activity (33P-ATP filtration-binding, Reaction Biology Corp.)
Conditions: read-out: Half Inhibitory Concentrations of Kinases IC50, Ros-G2032R
Experimental: The resulting mixture was incubated at room temperature for 20 minutes, and a certain concentration of 33P-ATP was added to the reaction mixture to initiate the reaction, followed by incubation at room temperature for 120 minutes. Finally, the radioactivity of the reactants was detected by a filtration-binding method. […] The dose-effect curve was fitted by GraphPad software and the IC50 values were calculated.
quantity: IC50 (nM)
Response body: numeric value in nM, unit text excluded.

Give reported IC50 for O=C1NC2(CC2)COc2ncc(F)cc2[C@H]2CCON2c2ccn3ncc1c3n2 (Ros-G2032R (Homo sapiens, UniProt P08922, G2032R))
0.4

* * *

System: Ba/F3 SLC34A2-ROS1-WT
Assay: Cell proliferation inhibition (CellTiter-Glo, 72 h)
Assay type: cell-based
Settings: Mus musculus, BaF3, read-out: Half Inhibitory Concentrations of Cells IC50, Ba/F3 SLC34A2-ROS1-WT
quantity: IC50
Be sure to follow the number with its unit.

Give reported IC50 for O=C1NC2(CC2)COc2ncc(F)cc2[C@H]2CCON2c2ccn3ncc1c3n2 [Compound of Formula (I)] (Ba/F3 SLC34A2-ROS1-WT)
2.53 nM

* * *

Assay: Cassette pharmacokinetic test in mice (plasma, brain, CSF)
Format: in vivo, male CD-1 mice
Details: mouse, plasma, 3 mg/kg; PO @ 3 mpk vs IV @ 1 mpk, cassette, male CD-1 mice; read-out: Bioavailability F %
Each item that follows carries a reported bioavailability.
Be sure to follow the number with its unit.

Example cases with answers are listed next.
[[record]]
molecule = "C[C@H]1CNC(=O)c2cnn3ccc(nc23)N[C@H](C)c2cc(F)ccc2O1 [TPX-0005]"
assay_value = "64%"

[[record]]
molecule = "O=C(Nc1cnn2ccc(N3CCC[C@@H]3c3cc(F)ccc3F)nc12)N1CC[C@H](O)C1 [LOXO-101, Larotrectinib]"
assay_value = "51%"


For O=C1NC2(CC2)COc2ncc(F)cc2[C@H]2CCON2c2ccn3ncc1c3n2 [Compound of Formula (I)] , write its bioavailability.
76%

* * *

Assay: Pharmacokinetic test in mice
Format: in vivo
Conditions: mouse, plasma; PO (10 mL/kg [sic]) vs IV 3 mg/kg, male CD-1 mice; read-out: Bioavailability F %
quantity: bioavailability (%)
Response body: numeric value in %, unit text excluded.

Example cases with answers are listed next.
[[record]]
compound = "O=C(Nc1cnn2ccc(N3CCC[C@@H]3c3cc(F)ccc3F)nc12)N1CC[C@H](O)C1"
assay_value = 28

[[record]]
compound = "C[C@@H]1CCc2ncc(F)cc2[C@H]2CCCN2c2ccn3ncc(c3n2)C(=O)N1 [LOXO-195, reference compound]"
assay_value = 74


Would you kindly look at the next entry?
For O=C1NC2(CC2)COc2ncc(F)cc2[C@H]2CCON2c2ccn3ncc1c3n2 , write its bioavailability.
51

* * *

Assay: Cassette pharmacokinetic test in mice (plasma, brain, CSF)
Assay type: in vivo, male CD-1 mice
Settings: male, CD-1, mouse, in vivo, po, 3 mg/kg
quantity: AUC(0-inf) (µM·h)
Response body: numeric value in µM·h, unit text excluded.

For CN1CCN(c2ccc(C(=O)Nc3n[nH]c4ccc(Cc5cc(F)cc(F)c5)cc34)c(NC3CCOCC3)c2)CC1 [RXDX-101, Entrectinib] , write its AUC(0-inf).
3.26

* * *

Biological target: TrkC (Homo sapiens)
Sequence (Q16288 32-839): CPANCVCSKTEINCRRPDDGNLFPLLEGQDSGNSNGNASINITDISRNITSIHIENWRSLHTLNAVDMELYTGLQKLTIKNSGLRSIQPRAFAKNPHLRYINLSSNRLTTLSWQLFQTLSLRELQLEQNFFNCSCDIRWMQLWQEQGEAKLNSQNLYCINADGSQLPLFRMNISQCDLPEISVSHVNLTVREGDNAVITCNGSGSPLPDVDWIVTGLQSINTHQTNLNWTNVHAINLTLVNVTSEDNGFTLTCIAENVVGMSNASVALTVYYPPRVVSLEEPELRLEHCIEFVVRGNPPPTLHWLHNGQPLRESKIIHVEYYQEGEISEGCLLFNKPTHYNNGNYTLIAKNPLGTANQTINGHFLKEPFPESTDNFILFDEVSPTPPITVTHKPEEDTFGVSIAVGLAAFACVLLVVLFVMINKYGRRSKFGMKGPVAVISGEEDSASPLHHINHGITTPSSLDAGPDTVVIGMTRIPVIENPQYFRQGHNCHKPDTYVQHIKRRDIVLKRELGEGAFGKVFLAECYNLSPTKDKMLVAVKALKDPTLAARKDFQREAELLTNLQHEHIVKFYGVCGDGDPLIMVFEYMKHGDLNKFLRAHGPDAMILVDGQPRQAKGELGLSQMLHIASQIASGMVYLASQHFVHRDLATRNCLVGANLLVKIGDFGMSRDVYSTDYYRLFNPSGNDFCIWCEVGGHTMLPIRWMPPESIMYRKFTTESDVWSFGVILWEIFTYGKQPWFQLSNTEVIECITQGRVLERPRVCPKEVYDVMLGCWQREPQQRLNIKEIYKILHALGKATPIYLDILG
quantity: pIC50
To interpret pIC50, take it as minus log10 of a concentration measured in moles per litre.

Give reported pIC50 for O=C1NC2(CC2)COc2ncc(F)cc2[C@H]2CCON2c2ccn3ncc1c3n2 [Compound of Formula (I)] (TrkC (Homo sapiens))
9.85

* * *

Assay: Cassette pharmacokinetic test in mice (plasma, brain, CSF)
Type: in vivo, male CD-1 mice
Conditions: male, CD-1, mouse, in vivo, iv, 1 mg/kg
quantity: AUC(0-inf) (µM·h)
Response body: numeric value in µM·h, unit text excluded.

For CN1CCN(c2ccc(C(=O)Nc3n[nH]c4ccc(Cc5cc(F)cc(F)c5)cc34)c(NC3CCOCC3)c2)CC1 [RXDX-101, Entrectinib] , write its AUC(0-inf).
3.77

* * *

Experiment: Cassette pharmacokinetic test in mice (plasma, brain, CSF)
Format: in vivo, male CD-1 mice
Conditions: mouse, plasma, 3 mg/kg; PO @ 3 mpk, cassette, male CD-1 mice; read-out: Area under Curve AUC0-inf
Each item that follows carries a reported AUC(0-inf).
Response body: numeric value in µM·h, unit text excluded.

Example cases with answers are listed next.
[[record]]
compound = "O=C(Nc1cnn2ccc(N3CCC[C@@H]3c3cc(F)ccc3F)nc12)N1CC[C@H](O)C1 [LOXO-101, Larotrectinib]"
units_text = "µM·h"
assay_value = 2.72

[[record]]
compound = "O=C1NC2(CC2)COc2ncc(F)cc2[C@H]2CCON2c2ccn3ncc1c3n2 [Compound of Formula (I)]"
units_text = "µM·h"
assay_value = 19.8


Would you kindly look at the next entry?
For C[C@H]1CNC(=O)c2cnn3ccc(nc23)N[C@H](C)c2cc(F)ccc2O1 [TPX-0005] , write its AUC(0-inf).
5.49

* * *

Target: TrkA-G595R (Homo sapiens, UniProt P04629, G595R)
Construct: purchased Reaction Biology Corp
Sequence (P04629 33-796 G595R): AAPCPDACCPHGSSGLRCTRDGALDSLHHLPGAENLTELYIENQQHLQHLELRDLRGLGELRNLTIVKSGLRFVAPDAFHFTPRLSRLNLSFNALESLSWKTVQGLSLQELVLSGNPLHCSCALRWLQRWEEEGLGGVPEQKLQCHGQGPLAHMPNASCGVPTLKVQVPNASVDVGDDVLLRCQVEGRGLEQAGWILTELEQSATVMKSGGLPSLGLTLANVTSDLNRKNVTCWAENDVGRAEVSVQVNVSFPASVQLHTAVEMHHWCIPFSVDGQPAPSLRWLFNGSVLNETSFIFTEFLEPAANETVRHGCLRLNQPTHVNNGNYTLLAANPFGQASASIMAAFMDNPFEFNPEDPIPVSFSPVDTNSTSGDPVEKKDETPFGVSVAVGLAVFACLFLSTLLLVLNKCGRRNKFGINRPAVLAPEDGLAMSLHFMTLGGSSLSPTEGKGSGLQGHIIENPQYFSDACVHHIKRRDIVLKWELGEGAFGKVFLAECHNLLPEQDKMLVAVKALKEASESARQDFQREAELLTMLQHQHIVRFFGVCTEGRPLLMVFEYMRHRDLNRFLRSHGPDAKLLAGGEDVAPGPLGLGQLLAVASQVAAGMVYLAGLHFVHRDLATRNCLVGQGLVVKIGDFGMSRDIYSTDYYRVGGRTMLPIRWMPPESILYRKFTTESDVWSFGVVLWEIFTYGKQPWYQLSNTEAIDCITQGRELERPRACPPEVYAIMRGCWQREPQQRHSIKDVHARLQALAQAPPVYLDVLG
Assay: Kinase inhibitory activity (33P-ATP filtration-binding, Reaction Biology Corp.)
Assay type: biochemical
Details: read-out: Half Inhibitory Concentrations of Kinases IC50, TrkA-G595R
Protocol: The resulting mixture was incubated at room temperature for 20 minutes, and a certain concentration of 33P-ATP was added to the reaction mixture to initiate the reaction, followed by incubation at room temperature for 120 minutes. Finally, the radioactivity of the reactants was detected by a filtration-binding method. […] The dose-effect curve was fitted by GraphPad software and the IC50 values were calculated.
quantity: pIC50
To interpret pIC50, take it as minus log10 of a concentration measured in moles per litre.

For O=C1NC2(CC2)COc2ncc(F)cc2[C@H]2CCON2c2ccn3ncc1c3n2 , write its pIC50.
8.44

* * *

Molecular target: TrkA-G667C (Homo sapiens, UniProt P04629, G667C)
Sequence (P04629 33-796 G667C): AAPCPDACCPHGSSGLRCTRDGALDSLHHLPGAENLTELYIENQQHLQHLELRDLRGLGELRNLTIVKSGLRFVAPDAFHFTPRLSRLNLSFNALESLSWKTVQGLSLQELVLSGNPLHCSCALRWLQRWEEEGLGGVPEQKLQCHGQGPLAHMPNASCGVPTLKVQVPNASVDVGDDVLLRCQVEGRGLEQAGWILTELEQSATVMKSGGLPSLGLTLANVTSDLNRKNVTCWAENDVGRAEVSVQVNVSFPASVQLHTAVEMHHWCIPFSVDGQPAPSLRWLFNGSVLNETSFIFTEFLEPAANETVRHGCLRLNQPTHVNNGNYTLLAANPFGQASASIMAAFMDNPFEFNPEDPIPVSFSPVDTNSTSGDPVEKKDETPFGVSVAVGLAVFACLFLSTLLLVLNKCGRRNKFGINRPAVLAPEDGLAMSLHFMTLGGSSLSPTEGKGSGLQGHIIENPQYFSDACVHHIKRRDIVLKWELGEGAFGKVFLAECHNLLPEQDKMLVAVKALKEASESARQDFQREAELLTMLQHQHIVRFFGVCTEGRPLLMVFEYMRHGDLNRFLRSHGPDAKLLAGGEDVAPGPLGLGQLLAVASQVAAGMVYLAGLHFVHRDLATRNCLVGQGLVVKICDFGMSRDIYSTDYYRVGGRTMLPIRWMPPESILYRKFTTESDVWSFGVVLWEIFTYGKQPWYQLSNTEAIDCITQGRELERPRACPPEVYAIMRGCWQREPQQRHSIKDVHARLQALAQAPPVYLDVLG
Assay: Kinase inhibitory activity (33P-ATP filtration-binding, Reaction Biology Corp.)
Conditions: read-out: Half Inhibitory Concentrations of Kinases IC50, TrkA-G667C
quantity: pIC50
To interpret pIC50, take it as minus log10 of a concentration measured in moles per litre.

For O=C1NC2(CC2)COc2ncc(F)cc2[C@H]2CCON2c2ccn3ncc1c3n2 , write its pIC50.
8.15

* * *

Experiment: Cassette pharmacokinetic test in mice (plasma, brain, CSF)
Assay type: in vivo, male CD-1 mice
Details: male, CD-1, mouse, in vivo, iv, 1 mg/kg
quantity: C0 (nM)
Response body: numeric value in nM, unit text excluded.

For CN1CCN(c2ccc(C(=O)Nc3n[nH]c4ccc(Cc5cc(F)cc(F)c5)cc34)c(NC3CCOCC3)c2)CC1 [RXDX-101, Entrectinib] , write its C0.
2810

* * *

Assay: Pharmacokinetic test in mice
Assay type: in vivo
Conditions: mouse, plasma; IV, 3 mg/kg, male CD-1 mice; read-out: Area under Curve AUC0-last
quantity: AUC(0-t) (µM·h)
Response body: numeric value in µM·h, unit text excluded.

For O=C1NC2(CC2)COc2ncc(F)cc2[C@H]2CCON2c2ccn3ncc1c3n2 [Compound of Formula (I)] , write its AUC(0-t).
17.5
